Just for reference, paper doi:10.1101/699967 is where these values come from.

- target.under.test: HaloTag-Brd4-BD1_BD2-NanoLuc (aa 44-460) (human, UniProt O60885 44-460, HaloTag NanoBRET 618 fluorescent ligand on the HaloTag (experimental samples))
- test.protocol: FRET or BRET
parameter: EC50 (µM)
One number for each entry, in µM.

-- ask Would you mind telling me what EC50 value was observed for SGRGKGGKGLGKGGAKRHR (acetyl-lysine at 5, 8 and 16) [H4(1-19)K5/8/16-triacetyl histone peptide] ?
-- reply 7.5
